# Test system: Pseudomonas aeruginosa CNUR 4
# assayExplanation: MIC test, agar dilution with Steers multiwell inoculator
# Assay type: cell-based
# settings: CNUR4, TSA dishes, 24 h at 35°C, read-out: Minimum Inhibiting Concentration
observationType: MIC (µg/mL)
Entry rule: numbers only, all in µg/mL.

Reference set (3 entries):
CN1CCN(c2cc3c(cc2N)c(=O)c(C(=O)O)cn3-c2ccc(F)cc2)CC1: 128
CC1CN(c2cc3c(cc2N)c(=O)c(C(=O)O)cn3C2CC2)CC(C)N1 (centres unmarked): 64
Nc1cc2c(=O)c(C(=O)O)cn(C3CC3)c2c(F)c1N1CCSCC1: 64

Kindly indicate its recorded MIC. Item: "Cc1c(N2CCSCC2)c(N)cc2c(=O)c(C(=O)O)cn(C3CC3)c12"
64

Give recorded MIC. "Cc1c(N2CCN(C)CC2)c(N)cc2c(=O)c(C(=O)O)cn(C3CC3)c12"
16

For the compound "Cc1c(N2CCc3ccccc3C2)c(N)cc2c(=O)c(C(=O)O)cn(C3CC3)c12" , give its measured MIC value.
128

// data source = patent EP0531958A1
